# Test system: IRE1-XBP1s (XBP1-RLuc splicing reporter in HEK293 T-REx cells)
# procedure.details: IRE1-XBP1s activation assay (XBP1-RLuc splicing reporter, HEK293 T-REx cells, luminescence relative to thapsigargin)
# Assay type: cell-based
# condition.label: 18 h, compound 10 μM, HEK293 T-REx XBP1-RLuc reporter cells, relative to thapsigargin (Tg) 500 nM, read-out: Activity (IRE1-XBP1s activation, luminescence as % signal relative to thapsigargin, % Tg)
# Experimental: IRE1-XBP1s activation Assay: HEK293 T-REx cells stably expressing the XBP1-RLuc splicing reporter were treated with an IRE1-XBP1s activator provided herein (10 μM) in the presence or absence of the IRE1 active site inhibitor 4μ8C (32 μM) for 18 h. Luminescence was shown as the percentage signal relative to thapsigargin (Tg) (500 nM, 18 h).
measured.attribute: activation at 10 µM

Ask | Requested field: activation at 10 µM. Item: Cc1ccc(OCCN(C)C(=O)Cn2cc(NC(=O)CCNc3ncccn3)cn2)cc1
Reply | > 50%

Ask | Requested field: activation at 10 µM. Item: Cc1nnc(OCCN(C)C(=O)Cn2cc(NC(=O)CCNc3ccc(F)nc3C)cn2)s1
Reply | < 30%

Ask | Requested field: activation at 10 µM. Item: Cc1ccc(OCCN(C)C(=O)Cn2cc(NC(=O)CCOc3ccnc(N)n3)cn2)cc1
Reply | > 50%

Ask | Requested field: activation at 10 µM. Item: Cc1ccc(OCCC(=O)Nc2cnn(CC(=O)N(C)CCOc3ccc(C(F)F)cc3)c2)c(F)c1
Reply | > 50%

Ask | Requested field: activation at 10 µM. Item: Cc1ccc(OCCC(=O)Nc2cnn(CC(=O)N(C)CCOc3ccc(C(F)(F)F)cc3)c2)c(F)c1
Reply | < 30%

Ask | Requested field: activation at 10 µM. Item: Cc1ccc(OCCN(C)C(=O)Cn2cc(NC(=O)CCNc3c(F)cncc3C=O)cn2)cc1
Reply | > 50%

Ask | Requested field: activation at 10 µM. Item: Cc1ccc(OCCN(C)C(=O)Cn2cc(NC(=O)CCNc3ccnc4ncnn34)cn2)cc1
Reply | < 30%

Ask | Requested field: activation at 10 µM. Item: Cc1ccc(OCCN(C)C(=O)Cn2cc(NC(=O)CCNc3ncccc3Cl)cn2)cc1
Reply | 30 to 50%

Ask | Requested field: activation at 10 µM. Item: Cc1ccc(OCCN(C)C(=O)Cn2cc(NC(=O)CCOc3ccncc3)cn2)cc1
Reply | > 50%

Ask | Requested field: activation at 10 µM. Item: Cc1ccc(OCCC(=O)Nc2cnn(CC(=O)N(C)CCOc3cc(F)c(C)c(F)c3)c2)c(F)c1
Reply | > 50%

Ask | Requested field: activation at 10 µM. Item: Cc1ccc(OCCC(=O)Nc2cnn(CC(=O)N(C)CCOc3ncc(F)cc3F)c2)c(F)c1
Reply | < 30%

Ask | Requested field: activation at 10 µM. Item: Cc1ccc(OCCN(C)C(=O)Cn2cc(NC(=O)C(C)COc3ccccc3)cn2)cc1 (stereo not shown)
Reply | > 50%

Ask | Requested field: activation at 10 µM. Item: COc1cc(NS(=O)(=O)CC(=O)Nc2cnn(CC(=O)N(C)CCOc3ccc(C)cc3)c2)ccn1
Reply | < 30%

Ask | Requested field: activation at 10 µM. Item: Cc1ccc(OCCN(C)C(=O)Cn2cc(NC(=O)CCOc3c(C)ccnc3C)cn2)cc1
Reply | 30 to 50%

Ask | Requested field: activation at 10 µM. Item: Cc1ccc(OCCN(C)C(=O)Cn2cc(NC(=O)CCNc3ccnc(C)c3)cn2)cc1
Reply | 30 to 50%

Ask | Requested field: activation at 10 µM. Item: Cc1ccc(OCCN(C)C(=O)Cn2cc(NC(=O)CCNc3cc(C)cnc3F)cn2)cc1
Reply | < 30%

* * *

Assign activation at 10 µM to each entry below.
# Tested on: IRE1-XBP1s (XBP1-RLuc splicing reporter in HEK293 T-REx cells)
# procedure.details: IRE1-XBP1s activation assay (XBP1-RLuc splicing reporter, HEK293 T-REx cells, luminescence relative to thapsigargin)
# Assay type: cell-based
# condition.label: 18 h, compound 10 μM, HEK293 T-REx XBP1-RLuc reporter cells, relative to thapsigargin (Tg) 500 nM, read-out: Activity (IRE1-XBP1s activation, luminescence as % signal relative to thapsigargin, % Tg)

Ask | Requested field: activation at 10 µM. Item: CC(C)c1cncc(F)c1OCCC(=O)Nc1cnn(CC(=O)N(C)CCOc2ccc(C(F)(F)F)nc2)c1 [Compound 277]
Reply | > 50%

Ask | Requested field: activation at 10 µM. Item: Cc1ccc(OCCN(C)C(=O)Cn2cc(NC(=O)C(O)CNc3ncc(F)cn3)cn2)cc1 (centres unmarked) [Compound 163]
Reply | < 30%

Ask | Requested field: activation at 10 µM. Item: Cc1ccc(OCCN(C)C(=O)Cn2cc(NC(=O)CCNc3nccc(F)n3)cn2)cc1 [Compound 139]
Reply | < 30%

Ask | Requested field: activation at 10 µM. Item: CNc1ccnc(OCCC(=O)Nc2cnn(CC(=O)N(C)CCOc3ccc(C)cc3)c2)n1 [Compound 216]
Reply | < 30%

Ask | Requested field: activation at 10 µM. Item: Cc1ccc(OCCN(C)C(=O)Cn2cc(NC(=O)CCNc3ccnc(C)c3F)cn2)cc1 [Compound 209]
Reply | < 30%

Ask | Requested field: activation at 10 µM. Item: Cc1ccc(OCCN(C)C(=O)Cn2cc(NC(=O)CCNc3ccncc3Cl)cn2)cc1 [Compound 182]
Reply | > 50%

Ask | Requested field: activation at 10 µM. Item: Cc1ccc(OCCN(C)C(=O)Cn2cc(N(C)C(=O)CCOc3ccccc3F)cn2)cc1 [Compound 51]
Reply | < 30%

Ask | Requested field: activation at 10 µM. Item: Cc1ccc(OCCC(=O)Nc2cnn(CC(=O)N(C)CCOc3ccc(F)c(OC(F)(F)F)c3)c2)c(F)c1 [Compound 78]
Reply | < 30%

* * *

# System: IRE1-XBP1s (XBP1-RLuc splicing reporter in HEK293 T-REx cells)
# procedure.details: IRE1-XBP1s activation assay (XBP1-RLuc splicing reporter, HEK293 T-REx cells, luminescence relative to thapsigargin)
# Assay type: cell-based
# condition.label: 18 h, compound 10 μM, HEK293 T-REx XBP1-RLuc reporter cells, relative to thapsigargin (Tg) 500 nM, read-out: Activity (IRE1-XBP1s activation, luminescence as % signal relative to thapsigargin, % Tg)
Assign activation at 10 µM to each entry below.

Ask | Requested field: activation at 10 µM. Item: Cc1ccc(OCCN(C)C(=O)Cn2cc(NC(=O)CCNc3ccnc(C(F)(F)F)c3)cn2)cc1
Reply | < 30%

Ask | Requested field: activation at 10 µM. Item: Cc1ccc(OCCN(C)C(=O)Cn2cc(NC(=O)CCOc3ccc(F)cc3C(C)C)cn2)cc1
Reply | > 50%

Ask | Requested field: activation at 10 µM. Item: Cc1ccc(OCCN(C)C(=O)Cn2cc(NC(=O)CCNc3ccnc(Br)c3)cn2)cc1
Reply | 30 to 50%

Ask | Requested field: activation at 10 µM. Item: CC(C)c1cncc(F)c1NCCC(=O)Nc1cnn(CC(=O)N(C)CCOc2ccc(C(F)(F)F)cn2)c1
Reply | > 50%

Ask | Requested field: activation at 10 µM. Item: Cc1ccc(OCCN(C)C(=O)Cn2cc(NC(=O)CCNc3cncc(N)n3)cn2)cc1
Reply | < 30%

Ask | Requested field: activation at 10 µM. Item: Cc1ccc(OCCN(C)C(=O)Cn2cc(NC(=O)CCNc3cncc(N)c3)cn2)cc1
Reply | < 30%

Ask | Requested field: activation at 10 µM. Item: Cc1ccc(OCCN(C)C(=O)Cn2cc(NC(=O)CCCc3ccccc3)cn2)cc1
Reply | < 30%

Ask | Requested field: activation at 10 µM. Item: Cc1ccc(OCCN(C)C(=O)Cn2cc(NC(=O)CCNc3nc(C)ccc3F)cn2)cc1
Reply | 30 to 50%

* * *

# Test system: IRE1-XBP1s (XBP1-RLuc splicing reporter in HEK293 T-REx cells)
# procedure.details: IRE1-XBP1s activation assay (XBP1-RLuc splicing reporter, HEK293 T-REx cells, luminescence relative to thapsigargin)
# Type: cell-based
# condition.label: 18 h, compound 10 μM, HEK293 T-REx XBP1-RLuc reporter cells, relative to thapsigargin (Tg) 500 nM, read-out: Activity (IRE1-XBP1s activation, luminescence as % signal relative to thapsigargin, % Tg)
measured.attribute: activation at 10 µM

Ask | Requested field: activation at 10 µM. Item: Cc1ccc(OCCN(C)C(=O)Cn2cc(NC(=O)CCNc3cc(C)ncc3C)cn2)cc1
Reply | < 30%

Ask | Requested field: activation at 10 µM. Item: COc1ccc(OCCN(C)C(=O)Cn2cc(NC(=O)CCNc3ccnc4ncnn34)cn2)cc1
Reply | 30 to 50%

Ask | Requested field: activation at 10 µM. Item: CN(CCOc1ccc(C(F)(F)F)cn1)C(=O)Cn1cc(NC(=O)CCNc2c(F)cncc2Cl)cn1
Reply | > 50%

Ask | Requested field: activation at 10 µM. Item: COc1ncc(Cl)cc1NCCC(=O)Nc1cnn(CC(=O)N(C)CCOc2ccc(C)cc2)c1
Reply | < 30%

Ask | Requested field: activation at 10 µM. Item: Cc1ccc(OCCN(C)C(=O)Cn2cc(NC(=O)CCNc3ccc(Cl)nc3)cn2)cc1
Reply | 30 to 50%

Ask | Requested field: activation at 10 µM. Item: Cc1ccc(OCCN(C)C(=O)Cn2cc(NC(=O)[C@H](CNc3ccc(F)nc3C)C(C)C)cn2)cc1
Reply | 30 to 50%

Ask | Requested field: activation at 10 µM. Item: Cc1ccc(OCCN(C)C(=O)Cn2cc(NC(=O)CCOc3ccnc(Br)c3)cn2)cc1
Reply | > 50%

Ask | Requested field: activation at 10 µM. Item: Cc1ccc(OCCN(C)C(=O)Cn2cc(N(C)C(=O)CCOc3ccccc3)cn2)cc1
Reply | < 30%
